testedOn: Peroxisome proliferator-activated receptor alpha (Homo sapiens)
assayDetails: Activation of human PPARalpha assessed as receptor-GST-TIF2 interaction by GST pull down assay
The source made the active and inactive calls. The rule behind the calls is not given here.
Would you mind answering with one of these outcomes? Y (active), N (inactive)

Completed entries (count: 6):
{"querySmiles": "CCCCCCCC/C=C\\CCCCCCCCNC(=O)c1cc(-c2ccc(Cl)cc2)n(-c2ccc(Cl)cc2)n1", "class": "Y"}
{"querySmiles": "CCCCCCCCCCCCCCCCNC(=O)c1nn(-c2ccc(Cl)cc2Cl)c(-c2ccc(Cl)cc2)c1C", "class": "N"}
{"querySmiles": "CCCCCCCC/C=C\\CCCCCCCCNC(=O)c1cc(-c2ccc(Cl)cc2)n(-c2ccc(Cl)cc2Cl)n1", "class": "Y"}
{"querySmiles": "CCCCCCCCCCCCCCCCNC(=O)c1cc(-c2ccc(Cl)cc2)n(-c2ccc(Cl)cc2Cl)n1", "class": "N"}
{"querySmiles": "CCCCCCCCCCCCCCCCNC(=O)c1cc(-c2ccc(Cl)cc2)n(-c2ccc(Cl)cc2)n1", "class": "N"}
{"querySmiles": "CCCCCCCC/C=C\\CCCCCCCCNC(=O)c1nn(-c2ccc(Cl)cc2Cl)c(-c2ccc(Cl)cc2)c1C", "class": "Y"}

## Task For `CCCCCCCCCCCCCCCCNC(=O)c1cc(-c2ccc(Cl)cc2)n(-c2ccccc2)n1` , what call appears in the results of this test?
## Result N

## Task // param item: `CCCCCCCC/C=C\CCCCCCCCNC(=O)c1cc(-c2ccc(Cl)cc2)n(-c2ccccc2)n1` ; yields the recorded call
## Result Y
